Target: human plasma-derived FIXa (Haematologic Technologies Inc) (human, UniProt P00740 47-191; P00740 227-461)
Sequence (P00740 47-191, chain 1 of 2): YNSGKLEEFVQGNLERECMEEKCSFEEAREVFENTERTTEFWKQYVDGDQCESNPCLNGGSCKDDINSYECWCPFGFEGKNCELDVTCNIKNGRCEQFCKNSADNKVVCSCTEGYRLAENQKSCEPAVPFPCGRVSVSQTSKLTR
Sequence (P00740 227-461, chain 2 of 2): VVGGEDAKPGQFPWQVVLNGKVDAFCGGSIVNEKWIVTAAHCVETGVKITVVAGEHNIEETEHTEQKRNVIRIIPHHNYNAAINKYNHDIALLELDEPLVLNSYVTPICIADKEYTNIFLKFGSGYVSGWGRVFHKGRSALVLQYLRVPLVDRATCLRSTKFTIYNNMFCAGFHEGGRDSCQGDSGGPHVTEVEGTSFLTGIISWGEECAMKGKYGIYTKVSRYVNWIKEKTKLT
Assay: cell-based or functional assay
QUANTITY_MEASURED: Stimulation index at 800 nM OA antibody

>>> observed_result("mAb4-5355 (monovalent one-armed version of mAb1-6584) (antibody, V domains shown) VH: EVQLVQSGAEVKKPGESLRISCKGSGYSFRPYWIGWVRQMPGKGLEWMGMIDPSDSYTDYGPSFRGHVTISADKSISTAYLQWSSLKASDTAMYYCARVRIRAGAFDIWGQGTMVTVSS VL: DIVMTQSPLSLPVTPGEPASISCRSSQSLLHSTWYNYLNWYLQKPGQSPQLLIYLGKNRASGVPDRFSGSGSGTDFTLKISRVEAEDVGVYYCMQVLHIPYTFGQGTKLEIK")
"580 fold"
>>> observed_result("mAb5-1257 (monovalent one-armed version of mAb1-9002) (antibody, V domains shown) VH: EVQLVESGGGLVQPGRSLKLSCAASKFTFDDYAMHWVRQVPGKGLEWVSGISWRGDIIGYVDSVKGRFTISRDNAKNSLYLQLNSLRAEDTALYYCVKSYGSGSFYNAFDSWGQGTLVTVSS VL: DIQMTQSPSTLSASAGDRVTITCRASQSISSWLAWYQQKPGKAPKFLIYKASRLERGVPSRFSGSGSGTEFSLTISSLQPDDFATYYCLEYSSYIRTFGQGTKVEIK")
"567 fold"
>>> observed_result("mAb4-5375 (monovalent one-armed version of mAb1-6609) (antibody, V domains shown) VH: EVQLVQSGAEVKKPGESLRISCKGSGYRFTPYWIGWVRQMPGKGLEWMGMIDPTDSYTDYGPSFRGHVTISADKSISTAYLQWSSLKASDTAMYYCARVRIRSGAFDIWGQGTMVTVSS VL: DIVMTQSPLSLPVTPGEPASISCRSSQSLLHSTWYNYLNWYLQKPGQSPQLLIYLGSNRASGVPDRFSGSGSGTDFTLKISRVEAEDVGVYYCMQALHIPYTFGQGTKLEIK")
"94 fold"

Hey, just so you know, these numbers are from patent US20250011468A1.
